tested on: Escherichia coli TOP10; assay: shrunken log2 fold change of peptide-encoding DNA abundance (4.5 h post-induction vs induction); higher = less antimicrobial activity (less host growth inhibition); settings: time post-induction: 4.5 h; library: site-saturation at positions 5, 18, 19, 20;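 note: peptides expressed intracellularly from a pBAD plasmid library in pooled LB shake-flask culture, induced with 0.3% L-arabinose, DNA abundance read by NGS, three biological replicates, DESeq2 with apeglm shrinkage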
Consider the following sequences; for each one, report its shrunken log2 fold change.
One number for each entry.

RRIRGRPPRLPRPRPRPHMQPRP; -0.121
RRIRWRPPRLPRPRPRPLHAPRP; 0.499
RRIRWRPPRLPRPRPRPIPVPRP; -0.11
RRIRGRPPRLPRPRPRPGCIPRP; 0.445
RRIRMRPPRLPRPRPRPTGMPRP; 0.136
RRIRYRPPRLPRPRPRPVQFPRP; -0.00142
RRIRTRPPRLPRPRPRPTKWPRP; -0.0752
RRIRKRPPRLPRPRPRPMKFPRP; -0.0265

I'm hoping you can list shrunken log2 fold change for every sequence here, please.
1. RRIRNRPPRLPRPRPRPWVFPRP
2. RRIRHRPPRLPRPRPRPCNDPRP
3. RRIRSRPPRLPRPRPRPNDIPRP
4. RRIRGRPPRLPRPRPRPATQPRP
5. RRIRMRPPRLPRPRPRPAFPPRP

Response:
1: -0.221; 2: -0.283; 3: -0.333; 4: 0.631; 5: -0.104

I'm hoping you can list shrunken log2 fold change for every sequence here, please.
1. RRIRGRPPRLPRPRPRPYIEPRP
2. RRIRCRPPRLPRPRPRPNPAPRP

Response:
1: -0.114; 2: 0.101

Reference source: the supplement of paper PMC9112550
